- Tested on: SK-MEL-5 melanoma
- ASSAY PROCEDURE: NCI-60 one-dose screen, 48 h
- MEASUREMENT CONDITIONS: 10 µM unless noted
About 83,000 compounds went through this panel and 20% of them were active in at least one assay; those are over-represented in the sample as a whole. Activity calls are given as the source filed them. Rule for the calls: active = growth percent below 10; inactive = the rest.
Returns: one label drawn from active, inactive

-- ask What was the test verdict on CCCCCCCCCCCCCC(=O)C(C)N (stereo not given) ?
-- reply inactive

-- ask What was the test verdict on Oc1cccc(Nc2nccc(-c3ccc4ccccc4c3)n2)c1 ?
-- reply inactive

-- ask What was the test verdict on O=C1c2cccnc2C(=O)c2c1c(C(=O)OCCN1CCOCC1)c1ccccn21 ?
-- reply active

-- ask What was the test verdict on COCCCNc1nc(NC(=O)c2ccc(F)cc2C)cc(-c2cccnc2)n1 ?
-- reply inactive

-- ask What was the test verdict on c1ccc(Sc2ncnc3ccccc23)cc1 ?
-- reply inactive

-- ask What was the test verdict on CCN(CC)CC#CCOC(=O)[C@]1(C)CCC[C@@]2(C)[C@H]1CC(C=O)=C1C=C(C(C)C)CC[C@@H]12 ?
-- reply inactive

-- ask What was the test verdict on CC[C@H](Nc1ncnc(N)c1C(N)=O)c1nc2cccc(NCc3ccc(C(=O)NO)cc3)c2c(=O)n1-c1ccccc1 ?
-- reply inactive

-- ask What was the test verdict on O=[N+]([O-])c1cccc(-c2nc3sccn3c2-c2ccnc(NCCCNS(=O)(=O)c3cccc(F)c3)n2)c1 ?
-- reply active

-- ask What was the test verdict on CC1=C(C)C(=O)OC([C@](C)(O)[C@]2(O)CC[C@@]3(O)[C@@H]4C[C@H]5O[C@]56CC=CC(=O)[C@]6(C)[C@H]4CC[C@]23COC(=O)c2ccc(C)o2)C1 (stereo not given in full) ?
-- reply active

-- ask What was the test verdict on c1ccc(-c2nc(N3CCOCC3)c3c4c(sc3n2)CCCCC4)nc1 ?
-- reply inactive

-- ask What was the test verdict on O=C(/C=C/c1ccc(Cl)cc1)/C=C/c1cc2ccccc2[nH]c1=O ?
-- reply inactive

-- ask What was the test verdict on c1ccc(CSc2ncnc3nc[nH]c23)nc1 ?
-- reply inactive

-- ask What was the test verdict on O=C([C@@H](COCc1ccccc1)N1C(=O)[C@@H](N2C(=O)OC[C@@H]2c2ccccc2)[C@H]1/C=C/c1ccccc1)N1CCC(CCN2CCCCC2)CC1 ?
-- reply inactive

-- ask What was the test verdict on NC1=CSC2=N/C(=C\c3ccc(Cl)cc3)C(=O)N12 ?
-- reply inactive

-- ask What was the test verdict on CCOC(=O)c1c2c(n3ccc(NC(=O)CCN4CCCCC4)cc13)C(=O)c1ncccc1C2=O ?
-- reply active

-- ask What was the test verdict on O=C(CNC1C2CC3CC(C2)CC1C3)Sc1nnc2sc3ccccc3n12 (stereo not given) ?
-- reply inactive

-- ask What was the test verdict on CCOC(=O)C(Cc1cc(I)c(O)c(I)c1)NC(=O)c1ccccc1 (stereo not given) ?
-- reply inactive

-- ask What was the test verdict on O=S(=O)(Nc1ccc(Cl)cc1Cl)c1ccc(-c2cnc(C3CC3)o2)cc1 ?
-- reply active

-- ask What was the test verdict on CCCCCCCCCCCCCCCCCCSC1=CC(=O)C(OC)=C(OC)C1=O ?
-- reply inactive

-- ask What was the test verdict on Cc1cc(Nc2nc(N3CCN(C)CC3)nc3ccccc23)n[nH]1 ?
-- reply inactive

The measurements presented in this section are drawn from PubChem BioAssay (NCI).
